- tested-target: T1, human transferrin receptor (hTfR) fused to EGFP, on CHO cells (human, UniProt P02786 1-760)
- T1 construct: whole, on cells; also called human TfR; CHO-hTfR-EGFP; not shown: EGFP from pEGFP-C1 vector, fused to the N-terminal (intracellular) end of hTfR
- T1 sequence (P02786 whole entry, the tested form may be a part): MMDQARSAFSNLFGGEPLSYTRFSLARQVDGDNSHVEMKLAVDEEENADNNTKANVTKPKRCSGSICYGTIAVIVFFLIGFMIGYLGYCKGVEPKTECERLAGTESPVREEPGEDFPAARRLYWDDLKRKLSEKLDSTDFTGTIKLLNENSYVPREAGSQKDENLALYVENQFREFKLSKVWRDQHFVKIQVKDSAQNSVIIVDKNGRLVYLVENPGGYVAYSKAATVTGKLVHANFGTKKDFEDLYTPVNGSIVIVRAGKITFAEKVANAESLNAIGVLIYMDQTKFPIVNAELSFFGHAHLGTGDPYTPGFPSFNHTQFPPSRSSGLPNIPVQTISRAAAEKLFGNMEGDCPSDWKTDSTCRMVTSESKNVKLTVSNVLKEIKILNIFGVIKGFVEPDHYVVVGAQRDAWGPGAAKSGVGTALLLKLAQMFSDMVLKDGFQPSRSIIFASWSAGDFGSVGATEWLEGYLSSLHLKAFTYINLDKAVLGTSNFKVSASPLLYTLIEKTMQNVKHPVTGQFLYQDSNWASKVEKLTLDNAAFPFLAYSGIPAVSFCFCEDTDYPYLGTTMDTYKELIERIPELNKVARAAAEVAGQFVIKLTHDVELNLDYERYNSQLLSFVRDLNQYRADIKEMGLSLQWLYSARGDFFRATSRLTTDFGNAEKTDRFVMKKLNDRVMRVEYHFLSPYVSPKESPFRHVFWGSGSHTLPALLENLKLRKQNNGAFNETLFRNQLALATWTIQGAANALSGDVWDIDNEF
- method-description: apparent Kd, flow cytometry, CHO cells
endpoint-label: Kd (nM)

{"columns": ["binder", "value"],
 "data": [
  ["C5^h19 (VHH) VHH: EVQLVESGGGVVQPGGSLRLSCAASGTDFSINFIRWYRQAPGKQREFVAGFTATGNTNYADSVKGRFTISRDNAKNTLYLQMNSLRPEDTAVYYCYMLDKWGQGTQVTVSS", 5.4],
  ["VHH A16 (C5^V16) (VHH) VHH: EVQLVESGGGVVQPGGSLKLSCVASGTDFSINFIRWYRQAPGKQREFVAGFTATGNTNYADSMKGRFTISRDNTKNAVYLQIDSLKPEDTAVYYCYILDKWGQGTQVTVSS", 4.7],
  ["C5^h13 (VHH) VHH: EVQLVESGGGVVQPGGSLRLSCAASGTDFSINFIRWYRQAPGKGLEFVAGFTATGNTNYADSVKGRFTISRDNTKNTLYLQMNSLRPEDTAVYYCYMLDKWGQGTQVTVSS", 8.3],
  ["B8^V11 (VHH) VHH: EVQLVESGGGVVQPGGSLRLSCAASDEIFSINFMRWYRQAPGKQREWVAGFTRDGSTNYPDSAKGRFTISRDNAKNTVYLQIDSLKPEDTAVYYCYMLDTWGQGTQVTVSS", 4.6]
]}
